Molecular target: Human calcitonin receptor (Homo sapiens)
Construct: expressed in transfected cells; host or cells: BHK-570 (Hollex-1)
Sequence (P30988 25-474): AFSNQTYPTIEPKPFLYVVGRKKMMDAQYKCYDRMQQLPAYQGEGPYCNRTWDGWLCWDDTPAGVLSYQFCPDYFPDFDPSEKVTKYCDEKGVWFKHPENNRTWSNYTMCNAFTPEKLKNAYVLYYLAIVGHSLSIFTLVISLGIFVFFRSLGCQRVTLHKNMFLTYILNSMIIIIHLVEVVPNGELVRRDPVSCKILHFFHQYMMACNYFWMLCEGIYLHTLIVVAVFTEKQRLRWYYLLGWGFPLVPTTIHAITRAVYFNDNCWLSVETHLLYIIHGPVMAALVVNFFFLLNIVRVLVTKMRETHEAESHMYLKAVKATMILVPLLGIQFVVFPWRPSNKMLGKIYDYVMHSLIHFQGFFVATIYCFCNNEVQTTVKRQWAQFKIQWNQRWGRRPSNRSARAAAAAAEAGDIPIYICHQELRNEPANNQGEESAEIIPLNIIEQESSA
Test: CRE-luciferase assay for calcitonin mimetics (Hollex-1)
Type: cell-based
Conditions: crude compound 25 μg/ml
endpoint: Luciferase induction (% of maximum luciferase induction produced by CT, 100 nM) (%)

compound	observed-result
CCNC(=O)C(Cc1cn(CC)c2ccccc12)NC(=O)Nc1cc(C(C)(C)C)ccc1C(C)(C)C (centres unmarked)	50.93
CC(C)(C)c1ccc(C(C)(C)C)c(NC(=O)N[C@H](Cc2ccc(F)cc2)C(=O)NCc2ccc3ccccc3c2)c1	41.8
CCNC(=O)C(Cc1ccc(OCC)cc1)NC(=O)Nc1cc(C(C)(C)C)ccc1C(C)(C)C (centres unmarked)	55.34
C=CCNC(=O)[C@@H](Cc1ccccc1)NC(=O)Nc1cc(C(C)(C)C)ccc1C(C)(C)C	69.62
CC(C)(C)c1ccc(C(C)(C)C)c(NC(=O)N[C@H](Cc2ccc(F)cc2)C(=O)NCc2ccccc2)c1	46.24

Cited source: patent US6391917B1
